Ref: patent US20240158348A1

system: ragweed (common ragweed, Ambrosia artemisiifolia); assay: Test C postemergence, ragweed; format: in vivo; conditions: 31 g ai/ha Postemergence; visual injury, 0 to 100 scale (0 no effect, 100 complete control)
reported.metric: Ragweed plant response rating
Reply: number alone, nothing else.

Example compounds with recorded Ragweed plant response rating:
Cc1cc(C)c(N2CCC(OC3COC3)C2=O)cc1NS(=O)(=O)C(F)(F)F (stereo not drawn); 90
Cc1c(N2CCC(OC3CCC3)C2=O)cc(N(C(=O)OCC(C)C)S(=O)(=O)C(F)(F)F)c(C)c1C (stereo not drawn); 30
Cc1cc(C)c(N2CCC(OCC3CC3)C2=O)cc1NS(=O)(=O)C(F)(F)F (stereo not drawn); 60
Cc1cc(C)c(N2CCC(OC3CC3)C2=O)cc1NS(=O)(=O)C(F)(F)F (single isomer, unassigned) [Compound 29]; 60
Cc1c(N2CCCC(OC3CCC3)C2=O)cc(N(COC(=O)C(C)(C)C)S(=O)(=O)C(F)(F)F)c(C)c1F (stereo not drawn); 30

Supply Ragweed plant response rating value. Item: Cc1c(N2CCC(OC3CCC3)C2=O)cc(N(COC(=O)C(C)(C)C)S(=O)(=O)C(F)(F)F)c(C)c1F (stereo not drawn)
80

Supply Ragweed plant response rating value. Item: Cc1cc(C)c(N(COC(=O)C(C)(C)C)S(=O)(=O)C(F)(F)F)cc1N1CCC(OCC2CC2(F)F)C1=O (stereo not drawn)
50

Supply Ragweed plant response rating value. Item: C=CCO/N=C1\CCN(c2cc(NS(=O)(=O)C(F)(F)F)c(C)cc2C)C1=O
60

Supply Ragweed plant response rating value. Item: Cc1cc(C)c(N2CCC(OCC3CCCC3)C2=O)cc1NS(=O)(=O)C(F)(F)F (stereo not drawn)
40

Supply Ragweed plant response rating value. Item: Cc1c(NS(=O)(=O)C(F)(F)F)cc(N2CCC(OCC3CC3)C2=O)c(C)c1F (stereo not drawn)
40

Supply Ragweed plant response rating value. Item: COC(=O)N(c1cc(N2CCC(OC3CC3)C2=O)c(C)cc1Cl)S(=O)(=O)C(F)(F)F (stereo not drawn)
60

Supply Ragweed plant response rating value. Item: Cc1c(NS(=O)(=O)C(F)(F)F)cc(N2CCC(OC3CCC3)C2=O)c(C)c1C (stereo not drawn)
50

Supply Ragweed plant response rating value. Item: Cc1cc(Cl)c(N(COC(=O)C(C)(C)C)S(=O)(=O)C(F)(F)F)cc1N1CCC(OC2CC2)C1=O (stereo not drawn)
90

Supply Ragweed plant response rating value. Item: CCCC(=O)OCN(c1cc(N2CCC(OC3CC3)C2=O)c(C)cc1C)S(=O)(=O)C(F)(F)F (stereo not drawn)
80
